B1: LINE1-full (parent)
chain: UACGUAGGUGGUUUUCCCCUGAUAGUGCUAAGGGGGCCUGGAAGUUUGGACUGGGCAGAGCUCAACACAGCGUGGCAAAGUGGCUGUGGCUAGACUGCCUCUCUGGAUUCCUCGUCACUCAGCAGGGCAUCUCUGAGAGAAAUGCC

Variants of: B1
experiment-description: self-cleavage, relative activity (ratio to wild type); higher = more cleavage; in vitro, sequencing; the parent is a self-cleaving ribozyme
Assign classes using reported self-cleavage values and the ranges b0: < 0.3; b1: ≥ 0.3 and < 1; b2: ≥ 1, please.

[[record]]
mutation_id = "A24G U115C"
answer_label = "b2"

[[record]]
mutation_id = "A65G U104A"
answer_label = "b0"

[[record]]
mutation_id = "A69U U87A"
answer_label = "b0"

[[record]]
mutation_id = "A64U A117G"
answer_label = "b1"

[[record]]
mutation_id = "A42G G80A"
answer_label = "b2"

[[record]]
mutation_id = "A50C A77U"
answer_label = "b1"

[[record]]
mutation_id = "U87C U134A"
answer_label = "b0"

[[record]]
mutation_id = "U23C A30G"
answer_label = "b1"

[[record]]
mutation_id = "U14C U39G"
answer_label = "b1"

[[record]]
mutation_id = "U29C A50U"
answer_label = "b2"

[[record]]
mutation_id = "A107G G114A"
answer_label = "b2"

